- System: estrogen receptors of type II
- experiment: Binding affinity to estrogen receptors of type II (displacement of labelled estradiol in tumour cells)
- settings: result in words
quantity measured: affinity to estrogen receptors of type II

| compound | system under test | recorded result |
| --- | --- | --- |
| CC(C)=CCc1c(O)ccc(C(=O)/C=C/c2ccccc2)c1O [Chalcone S1, Isocordoin] | estrogen receptors of type II | remarkable affinity |
| O=C(/C=C/c1ccccc1)c1ccc(O)cc1O [Chalcone S5, 2',4'-dihydroxychalcone] | estrogen receptors of type II | remarkable affinity |
| CC(C)=CCOc1ccc(C(=O)CCc2ccccc2)c(O)c1 [Chalcone S9, Dihydrocordoin, reference compound] | estrogen receptors of type II | no affinity |
| CC(C)=CCOc1ccc(C(=O)/C=C/c2ccc(O)cc2)c(O)c1 [Chalcone S8, 4-hydroxycordoin, reference compound] | estrogen receptors of type II | no affinity |
| O=C(/C=C/c1ccc(O)cc1)c1ccc(O)cc1O [Chalcone S6, 4,2',4'-trihydroxychalcone] | estrogen receptors of type II | remarkable affinity |
| CC(C)=CCOc1ccc(C(=O)/C=C/c2ccccc2)c(O)c1 [Chalcone S7, Cordoin] | estrogen receptors of type II | remarkable affinity |
| COc1ccc(C(=O)/C=C/c2cccc(O)c2)c(O)c1CC=C(C)C [Chalcone S4, 3-hydroxyderricin] | estrogen receptors of type II | remarkable affinity |
| COc1ccc(C(=O)/C=C/c2ccc(O)cc2)c(O)c1CC=C(C)C [Chalcone S2, 4-hydroxyderricin] | estrogen receptors of type II | remarkable affinity |
| COc1ccc(C(=O)/C=C/c2ccccc2O)c(O)c1CC=C(C)C [Chalcone S3, 2-hydroxyderricin] | estrogen receptors of type II | remarkable affinity |
